System: Mycobacterium tuberculosis
PROTOCOL_NOTES: Antimycobacterial activity against Mycobacterium tuberculosis H37Rv ATCC 27294 by MABA method
Type: functional
Mark each entry T if its MIC sits below 2 µg/mL, and F for all others.

MOLECULE	CLASS_LABEL
CO/N=C1/CCN(c2cc3c(cc2F)c(=O)c(C(=O)O)cn3[C@@H]2C[C@@H]2F)CC1N (stereo partly specified)	T
CCO/N=C1/CN(c2c(F)cc3c(=O)c(C(=O)O)cn([C@@H]4C[C@@H]4F)c3c2OC)CC1CN (stereo partly specified)	F
CO/N=C1/CN(c2nc3c(cc2F)c(=O)c(C(=O)O)cn3[C@@H]2C[C@@H]2F)[C@@H]1CN	F
O=C(O)c1cn(C2CC2)c2cc(N3CCNCC3)c(F)cc2c1=O	T
CCO/N=C1/CN(c2nc3c(cc2F)c(=O)c(C(=O)O)cn3[C@@H]2C[C@@H]2F)CC1CN (stereo partly specified)	T
CO/N=C1/CN(c2c(F)cc3c(=O)c(C(=O)O)cn([C@@H]4C[C@@H]4F)c3c2Cl)CC1CN (stereo partly specified)	F

Please examine the following record next.
# check: MIC < 2 µg/mL for CO/N=C1/CN(c2nc3c(cc2F)c(=O)c(C(=O)O)cn3[C@@H]2C[C@@H]2F)[C@H]1CN
T
